Target: T1, CD52 human leukocyte antigen (human, UniProt P31358 25-36)
T1 construct: whole, on cells; also called CD52 antigen
T1 chain (looked up): GQNDTSQTSSPS
Experiment: FACS on HUT-78 cells (CD52+), FITC anti-human IgG Fc, median fluorescence, 4-parameter fit; titre = 50% of maximum binding
Measured EC50 by item
All answers are understood in µg/mL, so give the number only.

DIVH4/DIVK5 (antibody, human IgG1, V domains shown, also called DIVHv4/DIVKv5) VH: EVQLLESGGGLVQPGGSLRLSCAGSGFTFTDFYMNWVRQAPGKGLEWVGFIRDKAKGYTTEYNPSVKGRFTISRDNAKNSLYLQMNSLRAEDTAVYYCAREGHTAAPFDYWGQGTLVTVSS VL: DIQMTQSPSSLSASVGDRVTITCKASQNIDKYLNWYQQKPGKSPKLLIYNTNNLQTGVPSRFSGSGSGTDFTLTISSLQPEDIATYYCLQHISRPRTFGTGTKLELK :: 2.39

Can you look up the measured EC50 of DIVH2/DIVK3 (antibody, human IgG1, V domains shown, also called DIVHv2/DIVKv3) VH: EVQLLESGGGLVQPGGSLRLSCAGSGFTFTDFYMNWIRQPPGKAPEWIGFIRDKAKGYTTEYNPSVKGRFTISRDNSKNTLYLQMNSLRAEDTAVYYCAREGHTAAPFDYWGQGTLVTVSS VL: DIQMTQSPSSLSASVGDRVTITCRASQNIDKYLNWYQQKPGKAPKLLIYNTNNLQSGVPSRFSGSGSGTDFTLTISSLQPEDIATYYCLQHISRPRTFGTGTKLELK for me? 3.89
